- Target Or System: T1, huASIC1a (Homo sapiens, UniProt P78348)
- T1 construct: host or cells: HEK293
- T1 sequence (P78348 1-528): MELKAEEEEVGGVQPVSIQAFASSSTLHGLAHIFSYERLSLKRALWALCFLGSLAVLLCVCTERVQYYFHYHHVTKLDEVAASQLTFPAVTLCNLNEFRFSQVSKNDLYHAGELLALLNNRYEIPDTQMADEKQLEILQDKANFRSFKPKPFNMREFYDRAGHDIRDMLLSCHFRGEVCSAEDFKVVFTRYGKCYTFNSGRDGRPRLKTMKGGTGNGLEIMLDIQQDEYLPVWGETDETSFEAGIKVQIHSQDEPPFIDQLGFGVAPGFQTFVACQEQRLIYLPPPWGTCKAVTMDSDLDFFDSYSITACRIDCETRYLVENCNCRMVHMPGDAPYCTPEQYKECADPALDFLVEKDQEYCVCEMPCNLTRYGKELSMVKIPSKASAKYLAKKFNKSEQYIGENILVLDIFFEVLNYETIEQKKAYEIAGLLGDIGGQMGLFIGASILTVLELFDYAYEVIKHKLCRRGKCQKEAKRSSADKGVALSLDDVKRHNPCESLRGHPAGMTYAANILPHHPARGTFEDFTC
- Test Details: QPatch electrophysiology, HEK293 cells stably expressing huASIC1a
- Assay type: cell-based
- Experimental Conditions: ASIC1a current at pH 6.0 after 15-20 minutes KnotBody pre-incubation, 2.3-6.6 µM
Readout Type: % current remaining (%)
Answer format: numeric, % implied, no suffix.

{"Molecule": "KB_A07_PcTx1: PcTx1 in VL CDR2 of KB_A07 (antibody, V domains shown) VH: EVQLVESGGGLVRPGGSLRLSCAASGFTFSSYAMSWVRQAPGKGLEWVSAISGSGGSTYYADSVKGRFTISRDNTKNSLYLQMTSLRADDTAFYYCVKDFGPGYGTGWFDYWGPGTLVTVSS VL: DIQMTQSPSSLSASVGDRVTITCRASQSISSYLNWYQQKPGKAPKLLIYAAGVEDCIPKWKGCVNRHGDCCEGLECWKRRRSFEVCVPKTPKTSRSGVPSRFSGSGSGTDFTLTISSLQPEDFATYYCQQGASPPYTFGQGTKVEIKR", "Value Observed": 4.8}
{"Molecule": "KB_A07: EETI-II knottin fused into VL CDR2, D1A12 VH; parental KnotBody, isotype control (antibody, V domains shown) VH: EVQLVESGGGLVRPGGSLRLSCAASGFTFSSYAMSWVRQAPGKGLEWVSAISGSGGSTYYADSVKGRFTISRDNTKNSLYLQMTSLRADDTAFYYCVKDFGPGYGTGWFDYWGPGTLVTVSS VL: DIQMTQSPSSLSASVGDRVTITCRASQSISSYLNWYQQKPGKAPKLLIYAAGVCPRILMRCKQDSDCLAGCVCGPNGFCGSRSGVPSRFSGSGSGTDFTLTISSLQPEDFATYYCQQGASPPYTFGQGTKVEIKRT", "Value Observed": 70.9}
{"Molecule": "KB_A12: EETI-II knottin fused into VL CDR2, D1A12 VH; parental KnotBody, isotype control (antibody, V domains shown) VH: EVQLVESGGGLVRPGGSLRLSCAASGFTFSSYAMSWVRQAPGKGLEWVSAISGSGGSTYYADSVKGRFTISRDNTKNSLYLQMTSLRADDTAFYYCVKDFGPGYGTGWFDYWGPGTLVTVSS VL: QSVLTQPPSVSEAPRQRVTITCSGSSSNIGNNAVNWYQQLPGKAPKLLIYAAGRCPRILMRCKQDSDCLAGCVCGPNGFCGANSGVSDRFSAAKSGTSASLAINGLRSEDEADYYCAAWDDSLNGYVFGTGTKLTVLGQP", "Value Observed": 67.4}

Let's switch to this molecule now.
Query: Reported % current remaining for KB_A12_PcTx1: PcTx1 in VL CDR2 of KB_A12 (antibody) VH: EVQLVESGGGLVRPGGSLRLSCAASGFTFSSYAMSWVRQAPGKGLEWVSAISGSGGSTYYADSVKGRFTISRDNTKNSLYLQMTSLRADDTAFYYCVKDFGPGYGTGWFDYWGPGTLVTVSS VL: QSVLTQPPSVSEAPRQRVTITCSGSSSNIGNNAVNWYQQLPGKAPKLLIYAAGREDCIPKWKGCVNRHGDCCEGLECWKRRRSFEVCVPKTPKTANSGVSDRFSAAKSGTSASLAINGLRSEDEADYYCAAWDDSLNGYVFGTGTKLTVLG : what is it?
Response: 4.8
